System name: AgBem1-D1
Protocol notes: SPOT peptide array binding signal intensity (averaged, normalized) (arbitrary units (background-subtracted, floor 0; scale differs between SH3 domains)); higher = stronger binding of the SH3 domain to the peptide
Measurement type: SPOT peptide array binding signal intensity

Solved cases (5 shown):
FSRRQSMDIPSKNRN :: 557
DAPASKPSVPPRNYF :: 2
VDFTLPPPPPPPGLD :: ≤ 0
SSSSTPPTLPPRRIE :: 42
RKQRSIPLSPIVPES :: 77

## Task Any idea what its SPOT peptide array binding signal intensity is? The binder is "PIVPSSPAPPLPLSG"
## Result ≤ 0

## Task Any idea what its SPOT peptide array binding signal intensity is? The binder is "ATNVPVAPPPPPASL"
## Result ≤ 0

Values were extracted from the supplement of paper PMC4466140.
